Target: Protein translocase subunit SecA (Escherichia coli (strain K12)) (UniProt P10408)
Sequence (P10408 whole entry): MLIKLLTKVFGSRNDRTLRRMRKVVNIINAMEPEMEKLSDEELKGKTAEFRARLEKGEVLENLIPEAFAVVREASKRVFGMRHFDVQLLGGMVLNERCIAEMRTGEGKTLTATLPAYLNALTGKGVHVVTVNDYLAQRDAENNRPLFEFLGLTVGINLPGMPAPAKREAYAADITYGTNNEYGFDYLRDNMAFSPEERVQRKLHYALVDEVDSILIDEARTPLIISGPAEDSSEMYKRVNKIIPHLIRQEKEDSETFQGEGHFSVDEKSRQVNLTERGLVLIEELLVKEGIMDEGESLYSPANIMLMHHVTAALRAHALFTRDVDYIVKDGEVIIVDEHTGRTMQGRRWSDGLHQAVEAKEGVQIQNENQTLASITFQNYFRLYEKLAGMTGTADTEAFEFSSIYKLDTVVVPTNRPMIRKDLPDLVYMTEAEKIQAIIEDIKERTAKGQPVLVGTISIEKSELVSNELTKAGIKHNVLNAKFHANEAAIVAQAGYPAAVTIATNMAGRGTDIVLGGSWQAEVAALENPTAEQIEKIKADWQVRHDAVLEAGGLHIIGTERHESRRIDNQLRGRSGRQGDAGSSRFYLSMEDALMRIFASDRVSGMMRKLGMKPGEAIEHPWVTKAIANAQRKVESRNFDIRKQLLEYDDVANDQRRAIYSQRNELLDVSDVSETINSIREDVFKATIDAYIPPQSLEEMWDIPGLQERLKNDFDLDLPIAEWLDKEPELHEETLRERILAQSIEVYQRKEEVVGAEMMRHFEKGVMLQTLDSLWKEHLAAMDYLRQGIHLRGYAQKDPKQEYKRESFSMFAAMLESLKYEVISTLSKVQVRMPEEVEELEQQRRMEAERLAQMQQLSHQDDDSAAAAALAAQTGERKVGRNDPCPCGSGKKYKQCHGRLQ
Experiment: Assay to Identify E. coli SecA ATPase Inhibitors
Type: functional
Parameters: scale not given: direction of the effect not stated beside the values
Settings: 30 µM
Results with a measured potency or affinity are listed apart.
Percent Effect values by entry
Please state the figure in %; there is no need to write the unit.

Some molecules with recorded Percent Effect:
molecule	target-entity	endpoint-unit	Percent Effect
CC(=O)Nc1cccc(C(=O)Nc2cnc3n2CCCC3)c1	Protein translocase subunit SecA (Escherichia coli (strain K12)) (UniProt P10408)	%	-3.85
CCOCC(O)CN1CCN(C(=O)c2ccc(OC)cc2F)CC1 (stereo unspecified)	Protein translocase subunit SecA (Escherichia coli (strain K12)) (UniProt P10408)	%	-4.94
Cc1ccc2c(c1)CN(C(=O)C1CCCCC1)C(CN(C)C)CO2 (stereo unspecified)	Protein translocase subunit SecA (Escherichia coli (strain K12)) (UniProt P10408)	%	-4.37
COC(=O)Cn1cccc(S(=O)(=O)N2CCC(C)CC2)c1=O	Protein translocase subunit SecA (Escherichia coli (strain K12)) (UniProt P10408)	%	-2.33
O=C(c1ccn(-c2ccccc2Cl)n1)N1CCSCC1	Protein translocase subunit SecA (Escherichia coli (strain K12)) (UniProt P10408)	%	-4.68

Now turn to the next molecule.
Query string: Any idea what Percent Effect was measured for CCOCCOc1ccccc1C(=O)N1CCCC(c2ncc[nH]2)C1 (stereo unspecified) ?
Result string: -3.41
